Record form. Attribute: TGI. Fill in for each entry.
# Tested on: SK-MEL-28 melanoma
# assay_details: NCI tumour cell line growth inhibition, 48 h

Task: Return value of TGI for input CC(=O)O[C@H]1CCC2[C@@H]3CCC4C(=O)c5oncc5C[C@]4(C)C3CC[C@@]21C (stereo partly drawn) , no commentary.
Result: > 100 µM

Task: Determine from records and report TGI for NC(C(=O)O)C(N)C(=O)O (stereo not drawn)
Result: > 100 µM

***
Task: Give me measured TGI, please, for this compound: CS(=O)(=O)c1ccc(C(F)(F)F)cc1NC(=O)Nc1cnc(Oc2ccc(-c3cc(Cl)cnc3N)cc2)nc1
Result: 5.62 µM

---

# Test system: RXF 393 renal
# assay_details: NCI tumour cell line growth inhibition, 48 h; in the data active = GI50 below about 0.43 µM; inactive = the rest
// allowed return values: active, inactive

Consider the worked cases shown below.
Task: Check the results log: what was the call for O=C=Nc1ccc(Cc2ccc(N=C=O)cc2)cc1 (tested in a mixture with another compound) ?
Result: inactive

Task: For this molecule, state the assay outcome: N#Cc1ccc(-n2cnc(NC(=O)[C@H]3CCN(C#N)C3)c2)cc1
Result: active

Task: Dear colleague, could you share the recorded outcome for O=C1Nc2ccccc2SC1C1SC(=S)N(Cc2ccccc2)C1=O (stereo not given) when you have a moment?
Result: inactive

Continuing:
Task: Name the outcome recorded for O=S(=O)(Nc1ccc(Cl)c(C(F)(F)F)c1)c1ccc(-c2cnc(C3CC3)o2)cc1 in the assay.
Result: active

Task: What classification did CCOC(=O)c1c(C)c2c(n1C)CSc1cc(S(=O)(=O)c3ccccc3)c(=O)[nH]c1-2 end up with in this test?
Result: inactive

---

# Test system: ACHN renal
# assay_details: NCI tumour cell line growth inhibition, 48 h
Field: TGI. Provide a value for each of the compounds that follow.

Task: Look up and report TGI, with ACHN renal as system, for O=C1CCC(=O)c2cc(Br)ccc2N1
Result: > 100 µM

Task: Report measured TGI on ACHN renal; entry: CC(=O)N1c2ccccc2C23CCN4CC5=CCOC(O)C(C5CC42)C13 (stereo not given)
Result: > 100 µM

Task: Under ACHN renal, report TGI for O=C=Nc1ccc(Cc2ccc(N=C=O)cc2)cc1 (tested in a mixture with another compound)
Result: > 25 µg/mL

Task: Give ACHN renal TGI for the following compound: CC(=O)Nc1ccc(/C=c2\sc3nnc(/C=C/c4ccccc4)n3c2=O)cc1
Result: > 50 µM

Moving on to another compound below.
Task: Supply TGI measured with ACHN renal for CCCCCCCCCCCCCCCCCCNc1ccn(C2OC(CO)C(OP(=O)(O)OCC3CCC(n4ccc(N)nc4=O)O3)C2O)c(=O)n1 (stereo not given) .
Result: > 100 µM

---

# Test system: HOP-92 NSCLC
# assay_details: NCI tumour cell line growth inhibition, 48 h
readout_kind: TGI

Please review the entries below; each comes with its answer.
Task: Indicate the recorded TGI value for this molecule: COC(CNC(=O)C(C)NC(=O)C(C)NC(=O)c1ccccc1)OC (stereo not drawn)
Result: > 100 µM

Task: Name the recorded TGI of the molecule listed here: CNC(=O)N(CCC#N)CCN(CCN(C(=O)NC)c1ccccc1)C(=O)NC
Result: > 100 µM

Task: For COC(=O)C1CCc2c(OC)ccc(OC)c2C1=O (stereo not drawn) , write its TGI.
Result: > 100 µM

Give TGI for all molecules that follow.
1. Cc1ccccc1NC(=O)C(=O)Cc1nc2ccccc2s1
2. CCOC(=O)Cn1nc2ccc(Nc3nc4ccccc4nc3C(=O)OCC)cc2n1
3. COC1OC(C)C(OC(=O)C(C)(C)C)C(C)(O)C1O (stereo not drawn)
4. COCCOC(C)C(/C=N/NC(N)=S)=N/NC(N)=S (stereo not drawn)

Result:
1: > 100 µM; 2: > 100 µM; 3: > 100 µM; 4: > 100 µM

src = PubChem BioAssay (NCI)
